- EXPERIMENTAL SYSTEM: T1, human complement component C6 (human, UniProt P13671 22-934)
- T1 construct: Protein was purified from human serum (113 kDa); biotinylated in the Fab ELISAs; also called human C6; hC6
- T1 sequence (P13671 22-934 limits assumed): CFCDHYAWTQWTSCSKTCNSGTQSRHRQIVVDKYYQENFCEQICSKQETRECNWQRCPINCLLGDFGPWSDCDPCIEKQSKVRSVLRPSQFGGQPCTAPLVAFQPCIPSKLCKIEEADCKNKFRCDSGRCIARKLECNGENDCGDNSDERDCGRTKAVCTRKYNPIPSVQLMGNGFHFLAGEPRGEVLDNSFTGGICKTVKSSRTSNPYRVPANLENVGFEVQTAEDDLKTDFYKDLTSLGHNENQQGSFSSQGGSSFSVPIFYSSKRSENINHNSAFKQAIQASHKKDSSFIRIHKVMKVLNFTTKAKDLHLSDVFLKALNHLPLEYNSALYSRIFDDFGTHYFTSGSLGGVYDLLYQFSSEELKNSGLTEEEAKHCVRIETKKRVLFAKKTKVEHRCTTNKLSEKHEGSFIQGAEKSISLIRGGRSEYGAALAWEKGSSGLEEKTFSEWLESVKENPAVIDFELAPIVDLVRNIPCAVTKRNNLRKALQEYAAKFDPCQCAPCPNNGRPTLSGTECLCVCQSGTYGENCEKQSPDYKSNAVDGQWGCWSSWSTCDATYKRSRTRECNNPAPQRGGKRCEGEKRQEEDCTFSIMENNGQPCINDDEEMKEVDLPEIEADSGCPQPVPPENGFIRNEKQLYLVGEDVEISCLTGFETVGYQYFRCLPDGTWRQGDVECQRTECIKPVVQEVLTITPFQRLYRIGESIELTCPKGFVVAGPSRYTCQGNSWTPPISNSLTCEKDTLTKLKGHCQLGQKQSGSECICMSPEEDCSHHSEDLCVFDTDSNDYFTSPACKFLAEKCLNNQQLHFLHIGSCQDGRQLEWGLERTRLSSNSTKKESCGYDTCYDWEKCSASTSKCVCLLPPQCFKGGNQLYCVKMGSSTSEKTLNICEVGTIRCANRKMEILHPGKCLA
- TEST DETAILS: ELISA on biotinylated hC6 and Biacore 3000 off-rate screening of periplasmic extracts on immobilized hC6

{"columns": ["BINDER", "binding result"],
 "data": [
  ["humanized 7E5 Fab 7E12 (Fab, V domains shown) VH: EVQLVESDGGLVQPGGSLKLSCAASGFTFSDYYMAWVRQGPGKGLEWVATINYDGSSTYYRESVKGRFTISRDNAKNTLYLQMNSLRAEDTATYYCARPSTEALFAYWGHGTLVTVSS VL: DVVLTQTPSTLSVTPGQPASISCRSSQSLLNDVGNTYLYWYLQKPGQSPQLLIYLVSDLGSGVPNRFSGSGSGTDFTLKISRVEAEDVGIYYCMQASHAPYTFGQGTNLEIK", "binds"]
]}

Value source: patent US20210060157A1
